test: label from the status in PepcDB records;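 note: failed if final PepcDB status was selected cloned or expressed and not failed if soluble or beyond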
RECORDED ENDPOINT: protein production

[[record]]
residue_sequence = "MLTQYRQAQEDILRGRVKVRVVGQDKGGGVVMGEGVEIAPGARIEGPVLIGGACHIATGAVVGPFTVLGPYTRVEEGATVRRSVLWDNVYTGEGANVRGLEHHHHHH"
result_value = "not failed"

[[record]]
residue_sequence = "MNSFKEGEYVLIRFGEKKFLRKLLPKQSLSVKKSVLKFDEVIGKPEGVKINGFEVYRPTLEEIILLGFERKTQIIYPKDSFYIALKLNLNKEKRVLEFGTGSGALLAVLSEVAGEVWTFEAVEEFYKTAQKNLKKFNLGKNVKFFNVDFKDAEVPEGIFHAAFVDVREPWHYLEKVHKSLMEGAPVGFLLPTANQVIKLLESIENYFGNLEVVEILHRHYKTISERFRPEDQMVAHTAYLVFGRKLKT"
result_value = "not failed"

[[record]]
residue_sequence = "MRNLKELKWSDLKTGIFFLLGLGFAAYLGLVIGKNTSIFTGVTTIKVMTRDVNGLAENNFVSVAGKKIGTVSKLDFSTQNDSLFVVAELKLQNEYANLVTKDSKASIRSLGVLGDKYVDIKAGTGKPVKEGDFIQLVPEDGLSALTDNAKSTIEKLNTLLDKLNNGDGPAGRLISDKQMGEDLQKTVMNLRKSSDELTRVSAELHNGKGLLPKLINDKSLADNTEQTIVNLKNAAAETETLMKQLNEGKGTLGKLNSDPALYNNLSKTLISLDTLLIDLKKRPNRYVRFTLF"
result_value = "failed"

[[record]]
residue_sequence = "MRFPFCTGGKTFVLWDVEVCPIPDGLGPHDVFSNIKRVLMDNGYRGDVSTTPYTDLTKSNGEFNGIPVRHLSAGDRDARLEVYMIDLYSCVVKEDGPLNLMLFVGDISSRSKDFFRVFRLLQSSSSDSSVPLSLTQDGICKALTFGEEVIIRECGERRKVPNSD"
result_value = "not failed"

[[record]]
residue_sequence = "MKRAFAAVAATVCLFLLVQLGSLALVEPFMSAGFQAVEDPSDPTNSLLYIIAILVATGVMLAAMKFGVDRLLQGLVLFAAVFISFYVFTVVVPPVVAVAGLNLVAVALALALGVGLLVYPEWYVIDAAGIVMGAGAAGLFGISFGLLPALVLLVVLAVYDAISVYGTEHMLALASGAMDLRLPVIFVVPLTLSYSFLDADNPESLEDDTPESDAEAEPDEGDDVSTATGDAEPVDTMAEDADTDADSDADADDPAAAEAAPDEHADPFARDAFFIGLGDAVIPTILVASAAFFRPGGVELLSVPGIALTVPALGAMVGTIAGLLALMWFVMKGRAHAGLPLLNGGAIAGYLLGAAAVGIPVVEALGVAPYL"
result_value = "failed"


Here is another sequence to look at.
protein production reading for MSNVRVLATDLAFPEGPVVMPDGSVVLVEIRAQQLTRVWPDGRKEVVAKVPGGPNGAALGPDGKMYICNNGGFGWFPSRGTMMPGAPAPHEYIGGSIQRVDLQSGEVETLFDKCGEHPLKGPNDLVFDKHGGLWFTDLGKRRARDMDVGAAYYIKPGMTEITEQVFGTLPLNGIGLSPDEATMYAAETPTGRLWAFDLSGPGEVKPRDVIYRGEKGKPICGLGGYQMFDSLAVEASGNVCVATLVSGCISVIAPDGTLVEQVPTGDRVTTNIAFGGPDLKTAYITLSGKGELIAMDWSRPGLPLNFLNKLEHHHHHH : failed

---

assay: label from the status in PepcDB records
RECORDED ENDPOINT: protein production

[[record]]
residue_sequence = "MIPLMHDFEGETVLVVGGGSVGARKARTFATEASVVVLSPEFGDRTFADAEKVRAAPTPEDATDWVERTDPALVVAATDDSDLNGAFSTAAAEHGALVNRTDDHGDQSFGNIVVPATVRDDPVTLAIATGGRAPALSKHLRERFEDEFGNAGLMADLVGDLREDLRDRGVPPAKRRDAVRFVVRSREVWKALDSGRSKGEQVARDVIGELPGDQT"
result_value = "not failed"

[[record]]
residue_sequence = "NRFIGYIQVACCCLLLCASCVRDGMDEDCNSYVRFVYDYNLEYIDLFHKQATKMNLYVFDEKGVFVTELKEESGAFAPDYLMTLPGAMAGRRYIFVAWSGLYGESYDKVTLTPGVSTLEDLEVSVNNLKTRIGGGVVDRELHLLWHGKQTEVSPQYNNDITTVSLLKNTKKFRIIMQMLDDSSIHVDDYDFRIISPNGRYNHENGLLGDETDEKVEYTAYHTEDDPETGAIAELNTLRLMTDTENRLVITHKSSGNVILDIPLNKYLNALRLQQYADIPLQEYLDRADKHGIILFFKGMDGNGNYISVDVQINGWLIRKQEVD"
result_value = "not failed"


---

assay: label from the status in PepcDB records
RECORDED ENDPOINT: protein production

Example entries begin here.
[[record]]
residue_sequence = "LAVIVVLGCFALGLGGIIGFVHKGEDYQAYQKLQWHTLAPEKIAPLVAQGYTVFVDITSDWCSICQTNKAEVTHREQVVNALMADDIILMQGNWSEADNTIAGYMQYEGIPGTPYNKIYGPRNPNGIVLPSKLTIEAVINGLAQA"
result_value = "failed"

[[record]]
residue_sequence = "MTEILPHVNDEVLPAEYELNQPEPEHCPGPESDMAGKSDACGGCANKEICESLPKGPDPDIPLITDNLSGIEHKILVLSGKGGVGKSTFAAMLSWALSADEDLQVGAMDLDICGPSLPHMLGCIKETVHESNSGWTPVYVTDNLATMSIQYMLPEDDSAIIWRGSKKNLLIKKFLKDVDWDKLDYLVIDTPPGTSDEHISINKYMRESGIDGALVVTTPQEVALLDVRKEIDFCKKAGINILGLVENMSGFVCPNCKGESQIFKATTGGGEALCKELGIKFLGSVPLDPRIGKSCDMGESFLDNYPDSPASSAVLNVVEALRDAVGDV"
result_value = "failed"

[[record]]
residue_sequence = "MKLVICAGPATTGKTAVLRHAIGKLIGRGFKPAFLKIDVQYAEEDEQFAREFAIPTRKTYSGDLCPDHCTVMVLGEALEWAGRQGADVLLVETAGLCLRCSPYVDGGLGVIVLEATSGMNLPLKVGPMLSLADVAVVTKIDRISQAEREVFRARIQDVAPGVRIREANALHGIGIDPLVDQIQATPDVDATLSLRGNPPVGTCTICVGKKEIGWKAHFGVVRSLENQTFYRGELEHHHHHH"
result_value = "failed"

[[record]]
residue_sequence = "MILVFLDNMASIKDLNLIDEINDSSNLKLINDRLKLLFWTKNPEITDEENKKKYLDFLNEYWDTLRAYGAGDLELFPDKINYLTLILAANSKNHNIYIKKLAEKYAEKIPIEDGDSKINIWDFIDVAANSRNNDLHLERMILEGDTVLLNQKNQSIYNFEKIRLKLKNYVEKVRNAEMPKEIKDLLVKKSEEAFEGINIGYNIESGIKVSTKEYSGEIPEDWHPPCMREILNDILSGGSPSHYARRSFVVYRFVSQFDPNLRPIEEGIITNRSAQDIATEEQIERFLDEIINIFKSVGDFDVEKTKYYISHNIGYKVANHITHCEYCKNWRDDGGKGLGYYCRPDSTCSRKDIIHPLDYLCHNINRHVKKSELEHHHHHH"
result_value = "failed"

[[record]]
residue_sequence = "PKAPVTGYVRFLNERREQIRTRHPDLPFPEITKMLGAEWSKLQPAEKQRYLDEAEKEKQQYLKELWAYQQSEAYKVCTE"
result_value = "not failed"


// protein production value for MFQPVTQKRLTNVSVVRMRKGGKRFEIACYPNMVMAYREGHVRDLDEVIQVEDVFENVSKGKLAANADLERCFGTRDRHAVLLQILLHGDLQVSDRERQYQSTRKLHEIASVVAAKTISRETKKPLPVGLIEKALREIHFAVQPNRPAKAQALEVIPLLRAQSGLDLERARLRLRIHVPSQRDAKAVKARLEPLQQGETDGTHSSSRSDSVRMKDGSAAVESESEEWLPGGALLWTVQADPGAFREIEEIVQRETNQQGIVEVASLRVLDDEDESILS : failed

// field: protein production; key: MEQSFFRELLHYQRPKDNPFRLVFAGLVMFSILFLGYINHQLLISSFGSLGIFTFLYYQPLPLKQLMTRLSVVGSYLFLGNLLGMLSTHIAWLIPIVVALVGFGGRFFFEVYDISKPGAFFGVMVTAMGASTSIPLAKIPFMSGCMLLGIGFSILFALVLHFTEKEISVPLAKRSLRERIYQHPEAPLDSIYYSFVLFFAVYISESLHLQNPYWLVVSCASILQGDNLRAIKQRNIQRIFGTTIGLVISAFLLNLALTTFESIVVITILFVTVEYFIRRNYGLAQFFTTPMALMLSLLVRQQYVITLIQFRFLGIVLGSLLGLSSSVAIHRCSNVL ; value = failed

Input MNESVDTDEATTPLVSAIIPTYGRNERLSSAIQSVLEQTYDNIELFVVDDASPTPVRETLDSFDPTVENSFRILRHDENQGANAARNTGIRASDGRYVAFLDDDDQWDETKITKQVQAFQESDSETGVVYTGVRKDGPEGTTVSTPVASGDVMKDLLTGTNFGQFSSVMVDTTVIETAGLPDERLPAWQDREWFFRLAQHTHFRPVRETLTYRQTGLPGSITKKYEQKRDVAYPMLISKHDWVAAEYGIYYERMFKATMRRSLARSAVRADRYKEARKYFLLSALANPLYWPVYPHLFASLGGKWSYESIASLRQQVTNGPASGTLEHHHHHH . Output protein production: failed

The sequence listed as MIDELRALAVFAKTTETGSFRAAARALGLAPSVVSHHVSQLESRLGVALLYRSTRRLSLTPDGQALYGHAQAMLQAAETGLNELAGRAAEPAGTLRLSLPAFFARGPLTTSLAAFSRCHPKVELELDYSDEKRDLIRDGIDLAIRIGELQDSALKSRRLFDMPRLLVAAPSLLDARGEPASPAELADWPWLGIRMRAKRKTLIDAAGRRHDFAIQPRITANSVDAACQLAIAGCGLATPPAFLVENELAAGQLRVVLPDCQVEALGVYAVWPANAARESLTLRLVRFLAELPPHQ shows protein production equal to failed

So, MIMARTSNIFARVEPEVKEQAEQVLEQLGIPMSSAVSMFLKQVVLQRGIPFEMKLPKDTPPSYSSLTKEQFNAEIEKGMLDIEAGRTYPMKSVEEEMKRDYGLLEHHHHHH ? Its protein production was not failed

protein production reading for MRIGQYQLRNRLIAAPMAGITDRPFRTLCYEMGAGLTVSEMMSSNPQVWESDKSRLRMVHIDEPGIRTVQIAGSDPKEMADAARINVESGAQIIDINMGCPAKKVNRKLAGSALLQYPDVVKSILTEVVNAVDVPVTLKIRTGWAPEHRNCEEIAQLAEDCGIQALTIHGRTRACLFNGEAEYDSIRAVKQKVSIPVIANGDITDPLKARAVLDYTGADALMIGRAAQGRPWIFREIQHYLDTGELLPPLPLAEVKRLLCAHVRELHDFYGPAKGYRIARKHVSWYLQEHAPNDQFRRTFNAIEDASEQLEALEAYFENFA : failed

Lookup result for MPMTLDLQPGQRLARGVARHLRAHGFVSVEEFVPARGLRVDVMGLGPKGEIWVIECKSSRADFQADAKWQGYLEWCDRYFWAVDMEFPAELLPAESGLLIADAYDAEIVRMAPEQKLAPARRKVLIQKFATHAARRLQALRDPEGHGIFE ; measured protein production: not failed
